Values were extracted from patent US20020028938A1.

Reported melting point by item:

Solved cases (5 shown):
molecule: CON=C(C)COc1c(-c2ccc(S(C)(=O)=O)cc2)cnn(-c2ccc(F)c(F)c2)c1=O
melting point: 143 to 145 °C
//
molecule: COC(Cn1ncc(-c2ccc(S(C)(=O)=O)cc2)c(-c2ccc(F)cc2)c1=O)c1ccccc1 (centres unmarked)
melting point: 135 to 137 °C
//
molecule: CS(=O)(=O)c1ccc(-c2cnn(-c3ccc(F)c(F)c3)c(=O)c2OCCC2C=CCC2)cc1 (centres unmarked)
melting point: 126 to 127 °C
//
molecule: CS(=O)(=O)c1ccc(-c2cnn(-c3ccc(F)c(F)c3)c(=O)c2-c2ccc(Cl)cc2)cc1
melting point: 187 to 188 °C
//
molecule: CC(C)CCOc1c(-c2ccc(S(C)(=O)=O)cc2)cnn(-c2ccc(F)c(Cl)c2)c1=O
melting point: 148 to 152 °C

**Q:** Would you mind telling me what melting point value was observed for CC(C)Oc1c(-c2ccc(S(C)(=O)=O)cc2)cnn(Cc2ccccc2)c1=O ?
**A:** 109 to 111 °C

**Q:** Now try Cc1cc(-c2c(-c3ccc(S(C)(=O)=O)cc3)cnn(-c3cccc(Cl)c3)c2=O)ccc1F .
**A:** 228 to 230 °C

**Q:** What do you have for CCC(CC)COc1c(-c2ccc(S(C)(=O)=O)cc2)cnn(-c2ccc(F)cc2)c1=O ?
**A:** 107 to 108 °C

###

Molecular target: human amnionic whole cell cyclooxygenase-2 (WISH cells) (Homo sapiens, UniProt P35354)
Construct: endogenous in cells
Sequence (P35354 18-604): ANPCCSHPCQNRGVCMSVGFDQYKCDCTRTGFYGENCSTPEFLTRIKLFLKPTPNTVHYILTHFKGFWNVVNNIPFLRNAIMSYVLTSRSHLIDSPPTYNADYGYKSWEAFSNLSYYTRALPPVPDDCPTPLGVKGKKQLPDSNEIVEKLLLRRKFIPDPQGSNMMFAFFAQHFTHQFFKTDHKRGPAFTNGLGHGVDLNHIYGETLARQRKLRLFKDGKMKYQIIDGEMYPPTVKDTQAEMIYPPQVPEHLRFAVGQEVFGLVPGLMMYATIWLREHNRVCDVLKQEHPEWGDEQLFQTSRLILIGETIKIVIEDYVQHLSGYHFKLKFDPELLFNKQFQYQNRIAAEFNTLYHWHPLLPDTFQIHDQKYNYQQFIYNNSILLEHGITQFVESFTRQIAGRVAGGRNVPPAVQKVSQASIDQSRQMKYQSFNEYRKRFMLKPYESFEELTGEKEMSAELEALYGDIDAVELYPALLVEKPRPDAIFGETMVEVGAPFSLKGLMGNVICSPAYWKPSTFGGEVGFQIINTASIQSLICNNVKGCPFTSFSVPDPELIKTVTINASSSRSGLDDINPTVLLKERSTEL
Test: IL-1β induced PGE2 production in WISH cells
Conditions: read-out: Wish IC50 (parenthetical value)
pIC50: −log10 of the molar value.
measurement.name: pIC50

Example entries begin here.
compound: CS(=O)(=O)c1ccc(-c2cnn(-c3ccc(F)cc3)c(=O)c2C2CCCCC2)cc1
target.or.test.system: human amnionic whole cell cyclooxygenase-2 (WISH cells) (Homo sapiens, UniProt P35354)
pIC50: 7.07

compound: CC(C)COc1c(-c2ccc(S(N)(=O)=O)cc2)cnn(-c2ccc(F)cc2)c1=O
target.or.test.system: human amnionic whole cell cyclooxygenase-2 (WISH cells) (Homo sapiens, UniProt P35354)
pIC50: 7.40

compound: NS(=O)(=O)c1ccc(-c2cnn(-c3ccc(F)c(F)c3)c(=O)c2Oc2ccc(F)cc2)cc1
target.or.test.system: human amnionic whole cell cyclooxygenase-2 (WISH cells) (Homo sapiens, UniProt P35354)
pIC50: 7.49

compound: CC(c1ccc(F)c(F)c1F)n1ncc(-c2ccc(S(N)(=O)=O)cc2)c(-c2ccc(F)cc2)c1=O (stereo not shown)
target.or.test.system: human amnionic whole cell cyclooxygenase-2 (WISH cells) (Homo sapiens, UniProt P35354)
pIC50: 7.36

compound: CN(C)c1cccc(Oc2c(-c3ccc(S(C)(=O)=O)cc3)cnn(-c3cccc(Cl)c3)c2=O)c1
target.or.test.system: human amnionic whole cell cyclooxygenase-2 (WISH cells) (Homo sapiens, UniProt P35354)
pIC50: 7.00

compound: Cc1ccc(-c2c(-c3ccc(S(C)(=O)=O)cc3)cnn(-c3cccc(Cl)c3)c2=O)cc1
target.or.test.system: human amnionic whole cell cyclooxygenase-2 (WISH cells) (Homo sapiens, UniProt P35354)
pIC50: 7.70

a = CS(=O)(=O)c1ccc(-c2cnn(-c3ccc(F)c(F)c3)c(=O)c2Cc2cccc(F)c2)cc1
b = CS(=O)(=O)c1ccc(-c2cnn(-c3ccc([N+](=O)[O-])s3)c(=O)c2-c2ccc(F)cc2)cc1
**Q:** Dear colleague, could you let me know whether a or b has the lower recorded pIC50? Thanks. Returns: label corresponding to the selected item.
**A:** a
(a: 7.52, b: 7.74)

P = CC(C)CCOc1c(-c2ccc(S(N)(=O)=O)cc2)cnn(-c2cccc(Cl)c2)c1=O
Q = COc1ccccc1-c1c(-c2ccc(S(C)(=O)=O)cc2)cnn(Cc2ccccc2)c1=O
**Q:** Which has the higher pIC50, P or Q ? Identify your selection by its label.
**A:** P

###

measurement.name: melting point

Worked examples follow.
molecule: CS(=O)(=O)c1ccc(-c2cnn(-c3ccc(C(F)(F)F)cc3)c(=O)c2-c2ccc(F)cc2)cc1
measurement.name: melting point
result: 171 to 173 °C
//
molecule: CC(C)(CO)COc1c(-c2ccc(S(C)(=O)=O)cc2)cnn(-c2ccc(F)c(F)c2)c1=O
measurement.name: melting point
result: 161 to 162 °C
//
molecule: CC(C)COc1c(-c2ccc(S(C)(=O)=O)cc2)cnn(-c2ccc(F)c(Cl)c2)c1=O
measurement.name: melting point
result: 116 to 120 °C
//
molecule: CCOc1c(-c2ccc(S(C)(=O)=O)cc2)cnn(-c2ccc(F)c(F)c2)c1=O
measurement.name: melting point
result: 121 to 123 °C
//
molecule: CS(=O)(=O)c1ccc(-c2cnn(C3C4CC5CC(C4)CC3C5)c(=O)c2-c2ccc(F)cc2)cc1 (stereo not shown)
measurement.name: melting point
result: 195 to 197 °C

**Q:** Dear colleague, I am looking for the recorded melting point of the following molecule: CS(=O)(=O)c1ccc(-c2cnn(CC(F)(F)F)c(=O)c2Nc2ccccc2)cc1
**A:** 154 to 156 °C

**Q:** Next molecule: CC(C)(C)c1ccc(-n2ncc(-c3ccc(S(C)(=O)=O)cc3)c(-c3ccc(F)cc3)c2=O)cc1
**A:** 132 to 136 °C

**Q:** Same thing, different molecule: CC#Cc1c(-c2ccc(S(C)(=O)=O)cc2)cnn(-c2ccc(F)c(F)c2)c1=O
**A:** 149 to 150 °C

###

Molecular target: recombinant human Cox-2 (r-hu Cox-2) (Homo sapiens, UniProt P35354)
Sequence (P35354 18-604): as the sequence (P35354 18-604) above
Experiment: Recombinant human PGHS-2 enzyme assay (RHUCX2)
Conditions: read-out: RHUCX2 IC50 (parenthetical value)
measurement.name: IC50 (nM)

Please review the entries below; each comes with its answer.
compound: NS(=O)(=O)c1ccc(-c2cnn(CC(F)(F)F)c(=O)c2-c2ccc(F)cc2)cc1 [Example 68]
IC50 [nM]: 297
--
compound: CC(C)(O)COc1c(-c2ccc(S(N)(=O)=O)cc2)cnn(-c2ccc(F)cc2)c1=O [Example 478]
IC50 [nM]: 810

A = CC1CCC(n2ncc(-c3ccc(S(C)(=O)=O)cc3)c(-c3ccc(F)cc3)c2=O)C1 (stereo not shown) [Example 133]
B = CC(C)COc1c(-c2ccc(S(C)(=O)=O)cc2)cnn(-c2cccc(Cl)c2)c1=O [Example 335]
**Q:** Look at A and B . Which one has the lower recorded IC50 number? Your choice should be expressed through its label.
**A:** B
(B: 1 nM, A: 358 nM)

###

Biological target: recombinant human Cox-1 (r-hu Cox1) (Homo sapiens, UniProt P23219)
Construct: made in house; host or cells: baculovirus/Sf9 insect cells (microsomes)
Sequence (P23219 24-599): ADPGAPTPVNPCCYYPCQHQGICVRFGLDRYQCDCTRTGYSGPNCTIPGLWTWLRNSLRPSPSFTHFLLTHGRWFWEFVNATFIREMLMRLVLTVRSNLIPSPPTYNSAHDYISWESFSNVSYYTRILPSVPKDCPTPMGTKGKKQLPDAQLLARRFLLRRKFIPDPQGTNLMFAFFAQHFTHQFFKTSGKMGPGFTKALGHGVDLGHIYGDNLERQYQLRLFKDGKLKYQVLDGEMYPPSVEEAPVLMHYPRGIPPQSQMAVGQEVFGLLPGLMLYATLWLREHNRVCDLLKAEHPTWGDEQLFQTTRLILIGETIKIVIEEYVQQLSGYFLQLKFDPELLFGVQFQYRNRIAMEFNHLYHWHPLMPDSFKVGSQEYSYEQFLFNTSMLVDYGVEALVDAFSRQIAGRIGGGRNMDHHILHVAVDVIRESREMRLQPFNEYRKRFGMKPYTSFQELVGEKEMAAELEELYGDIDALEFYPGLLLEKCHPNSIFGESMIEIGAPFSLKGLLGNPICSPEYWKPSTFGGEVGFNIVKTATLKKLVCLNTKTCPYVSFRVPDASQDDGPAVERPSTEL
Test: Recombinant human PGHS-1 enzyme assay (RHUCX1)
Format: biochemical
Settings: 100 μM
measurement.name: RHUCX1 % Inh. at Dose (μM)

Record excerpt, results attached:
compound: CS(=O)(=O)c1ccc(-c2cnn(-c3ccoc3)c(=O)c2-c2ccc(F)cc2)cc1
target.or.test.system: recombinant human Cox-1 (r-hu Cox1) (Homo sapiens, UniProt P23219)
RHUCX1 % Inh. at Dose (μM): 25 @ 100%
//
compound: CC(C)CCc1c(-c2ccc(S(C)(=O)=O)cc2)cnn(CC(F)(F)F)c1=O
target.or.test.system: recombinant human Cox-1 (r-hu Cox1) (Homo sapiens, UniProt P23219)
RHUCX1 % Inh. at Dose (μM): 0 @ 100%
//
compound: CS(=O)(=O)c1ccc(-c2cnn(Cc3ccsc3)c(=O)c2-c2ccc(F)cc2)cc1
target.or.test.system: recombinant human Cox-1 (r-hu Cox1) (Homo sapiens, UniProt P23219)
RHUCX1 % Inh. at Dose (μM): 7 @ 100%

**Q:** Requested read-out RHUCX1 % Inh. at Dose (μM), target or system recombinant human Cox-1 (r-hu Cox1) (Homo sapiens, UniProt P23219), entry C#CCn1ncc(-c2ccc(S(C)(=O)=O)cc2)c(-c2ccc(F)cc2)c1=O
**A:** 0 @ 100%

**Q:** Please answer likewise for CS(=O)(=O)c1ccc(-c2cnn(-c3ccc(F)cc3)c(=O)c2COc2ccc(F)cc2)cc1
**A:** 35 @ 100%

**Q:** Check CS(=O)(=O)c1ccc(-c2cnn(C3CCCC3)c(=O)c2-c2ccc(F)cc2)cc1 too.
**A:** 0 @ 100%

**Q:** Also, CC(C)(O)COc1c(-c2ccc(S(C)(=O)=O)cc2)cnn(-c2ccc(F)c(F)c2)c1=O please.
**A:** 14 @ 100%

**Q:** Please do the same for CS(=O)(=O)c1ccc(-c2cnn(-c3cccc(Cl)c3)c(=O)c2C2CCCC2)cc1 as well.
**A:** 1 @ 100%

**Q:** Check COc1ccc(CCOc2c(-c3ccc(S(C)(=O)=O)cc3)cnn(CC(F)(F)F)c2=O)cc1OC too.
**A:** 0 @ 100%

**Q:** Param item: CS(=O)(=O)c1ccc(-c2cnn(CC(F)(F)F)c(=O)c2Oc2cc(C(F)(F)F)ccc2F)cc1
**A:** 1 @ 100%

**Q:** What about CS(=O)(=O)c1ccc(-c2cnn(CC(F)=C(F)F)c(=O)c2-c2ccc(F)cc2)cc1 ?
**A:** 0 @ 100%

**Q:** Please answer likewise for CS(=O)(=O)c1ccc(-c2cnn(CC(F)(F)F)c(=O)c2OCCN2CCOCC2)cc1
**A:** 16 @ 100%

**Q:** Cool, now CS(=O)(=O)c1ccc(-c2cnn(Cc3ccccc3)c(=O)c2-c2ccc(C(F)(F)F)cc2)cc1
**A:** 1 @ 100%

**Q:** Quick one: CS(=O)(=O)c1ccc(-c2cnn(Cc3ccc(Cl)s3)c(=O)c2-c2ccc(F)cc2)cc1
**A:** 0 @ 100%

**Q:** Now try CS(=O)(=O)c1ccc(-c2cnn(CC(F)(F)F)c(=O)c2Nc2ccc(F)cc2F)cc1 .
**A:** 7 @ 100%
